System: OVCAR-4 ovarian
Assay comment: NCI-60 one-dose screen, 48 h (100 = growth as untreated, 0 = no growth, -100 = all killed)
Applied conditions: 10 µM unless noted
Compounds without any hit were thinned out: in the full panel of roughly 83,000, 20% have a hit.

- Compound: "C=CCN=c1sc(-c2ccc3ccccc3c2)cn1NC(=O)c1cc2ccc1CCc1ccc(cc1)CC2"
  growth [%]: 33.5
- Compound: "NCCCNc1nc2ccccc2c2c(=O)c3cc(Cl)ccc3sc12"
  growth [%]: 33.4
- Compound: "CCOC(=O)C1=C(CC(O)c2ccc(OC)cc2OC)NC(=O)NC1c1ccccc1 (centres undefined)"
  growth [%]: 106
- Compound: "Cc1cccc(N2C(=O)/C(=C/C(Cl)=C/c3ccc([N+](=O)[O-])cc3)SC2=S)c1C"
  growth [%]: 19.8
- Compound: "Cc1ccc(OCCOCCOCCOCCOCCOc2ccc(C)n(O)c2=S)c(=S)n1O"
  growth [%]: 22.7
- Compound: "O=c1oc2c(cc1-c1ccccc1)c(=O)[nH]c1ccccc12"
  growth [%]: 99.6
- Compound: "COCCn1cc(-c2nc(-c3cc4cccnc4n3C)cs2)c2ccccc21"
  growth [%]: 25.1
- Compound: "CNC(=O)c1cc(Oc2ccc3c(c2)sc2nc(-c4cc(C(F)(F)F)cc(C(F)(F)F)c4)cn23)ccn1"
  growth [%]: 24.8
- Compound: "Cc1ccc(OCCOCCOCCOc2ccc(C)n(O)c2=S)c(=S)n1O"
  growth [%]: 20.5
- Compound: "O=C(NCCNC(c1ccccc1)C(NCCNC(=O)c1ccccc1)c1ccccc1)c1ccccc1 (centres undefined)"
  growth [%]: 91.3
- Compound: "COc1cc(O)c2c(=O)c3c(CC=C(C)C)cc(OC)c(O)c3oc2c1"
  growth [%]: 52.5
- Compound: "C[C@H](c1nc2ccc(C#N)cc2[nH]1)[C@H]1CC[C@H]2[C@@H]3CCC4=CC(=O)CC[C@]4(C)[C@H]3CC[C@]12C"
  growth [%]: 46
- Compound: "Cc1ccc(S(=O)(=O)N2CCCN(c3nc(-c4ccccc4)nc4nc(-c5ccccc5)oc34)CC2)cc1"
  growth [%]: 103
- Compound: "Brc1ccc(Nc2nc(Nc3cnc4ccccc4c3)c3[nH]cnc3n2)cc1"
  growth [%]: 73.7
- Compound: "C=C(c1ccc(C(=O)O)c(F)c1)c1cc2c(cc1C)C(C)(C)CCC2(C)C"
  growth [%]: 80.9
- Compound: "O=C(NN1C(=O)CSC1c1cccc([N+](=O)[O-])c1)c1ccc(NC(=O)c2ccccn2)cc1 (centres undefined)"
  growth [%]: 110
- Compound: "CN(C)c1ccc(/C=N\\NC(=O)c2ccc3nc(-c4ccc(Cl)cc4)[nH]c3c2)cc1"
  growth [%]: 36.4
- Compound: "CS(=O)(=O)Nc1cc(-c2ccc3ncnc(Nc4ccc5c(cnn5Cc5ccncc5)c4)c3c2)cnc1Cl"
  growth [%]: 84.8
- Compound: "CC(=O)c1ccc(-n2cc(CN3CCN(c4cc5c(cc4F)c(=O)c(C(=O)O)cn5C4CC4)CC3)nn2)cc1"
  growth [%]: 102

---

Test system: NCI-H23 lung
Assay comment: NCI-60 one-dose screen, 48 h
Applied conditions: 10 µM unless noted
This is part of a sample that, as a whole, favours compounds with a hit. Of some 83,000 tested, about 20% had one in any assay. Activity calls are given as the source filed them. The calls were made as follows: active = growth percent below 10; inactive = the rest.
Outcomes: active, inactive

- Molecule: "N#Cc1ccc(O)c(C2=NCC(c3ccc(-c4ccccc4)cc3)O2)c1 (centres undefined)"
  Target of assay: "NCI-H23 lung"
  Assigned category: "inactive"
- Molecule: "O=C1O[C@@H](c2ccccc2Cl)[C@@H]2c3cc4c(cc3CCN12)OCO4"
  Target of assay: "NCI-H23 lung"
  Assigned category: "inactive"
- Molecule: "Nc1cc(Br)cc2c1[nH]c(=O)c1ccccc12"
  Target of assay: "NCI-H23 lung"
  Assigned category: "inactive"
- Molecule: "Nc1ncnc2c1N=C(c1ccc(F)cc1)CC(c1cccc(Nc3ccnc4cc(Cl)ccc34)c1)N2 (centres undefined)"
  Target of assay: "NCI-H23 lung"
  Assigned category: "inactive"
- Molecule: "CC1=C(Cl)C(=O)c2cc(C)ccc2C1=O"
  Target of assay: "NCI-H23 lung"
  Assigned category: "inactive"
- Molecule: "Cc1ccc(OCCOCCOCCOCCOCCOc2ccc(C)n(O)c2=S)c(=S)n1O"
  Target of assay: "NCI-H23 lung"
  Assigned category: "inactive"
- Molecule: "O=C(NC1CCC(Br)CC1)C1CCCC(S(=O)(=O)NC2CCCCC2)C1 (centres undefined)"
  Target of assay: "NCI-H23 lung"
  Assigned category: "active"
- Molecule: "CN(C)CCC(=O)C1CC1"
  Target of assay: "NCI-H23 lung"
  Assigned category: "inactive"
- Molecule: "O=C1Nc2ccc(Cl)cc2/C1=C/c1ccc[nH]1"
  Target of assay: "NCI-H23 lung"
  Assigned category: "inactive"
- Molecule: "CC(=O)c1ccc(-n2cc(CN3CCN(c4cc5c(cc4F)c(=O)c(C(=O)O)cn5C4CC4)CC3)nn2)cc1"
  Target of assay: "NCI-H23 lung"
  Assigned category: "inactive"
- Molecule: "Clc1ccc(Nc2nnc(CNc3ccccc3)c3ccccc23)cc1"
  Target of assay: "NCI-H23 lung"
  Assigned category: "active"
- Molecule: "CS(=O)(=O)Nc1cc(-c2ccc3ncnc(Nc4ccc(F)c(Cl)c4)c3c2)ccc1Cl"
  Target of assay: "NCI-H23 lung"
  Assigned category: "inactive"
- Molecule: "CCNC(=O)N1CCc2c(Br)c3c(c(OC)c2C1Cc1ccc(OC)cc1)OCO3 (centres undefined)"
  Target of assay: "NCI-H23 lung"
  Assigned category: "inactive"
- Molecule: "CC1(C)N=C(N)N=C(N)N1c1cc(Cl)ccc1Cl"
  Target of assay: "NCI-H23 lung"
  Assigned category: "inactive"
- Molecule: "C1CCC(N2CN3c4nonc4N4CN(C5CCCCC5)CN5c6nonc6N(C2)C3C45)CC1 (centres undefined)"
  Target of assay: "NCI-H23 lung"
  Assigned category: "inactive"
- Molecule: "COc1ccc2c(c1)CC[C@@H]1[C@@H]2CC[C@]2(C)C3C(=CC(COC(C)=O)C4C(=O)N(c5ccc(Cl)cc5)C(=O)C43)C[C@@H]12 (some centres undefined)"
  Target of assay: "NCI-H23 lung"
  Assigned category: "inactive"
- Molecule: "O=c1cc(CP(=O)(O)O)c2cc(O)c(-c3ccccc3)cc2o1"
  Target of assay: "NCI-H23 lung"
  Assigned category: "inactive"
- Molecule: "O=CCCCOCc1ccccc1"
  Target of assay: "NCI-H23 lung"
  Assigned category: "inactive"
- Molecule: "CSc1ccc2c3c(n(CCCn4ccnc4)c(=O)c2c1)-c1ccccc1C3=O"
  Target of assay: "NCI-H23 lung"
  Assigned category: "inactive"
- Molecule: "CCCCNC(=O)c1ccc2c(c1)nc(-c1ccccc1)n2C1CCCCC1"
  Target of assay: "NCI-H23 lung"
  Assigned category: "inactive"
- Molecule: "CS(=O)(=O)Nc1cc(-c2ccc3ncnc(Nc4ccc(OCc5ccccn5)c(Cl)c4)c3c2)cnc1Cl"
  Target of assay: "NCI-H23 lung"
  Assigned category: "active"
- Molecule: "O=S(Nc1ccccc1)c1ccc(Cl)cc1 (centres undefined)"
  Target of assay: "NCI-H23 lung"
  Assigned category: "inactive"
- Molecule: "COC1C(O)CC(OC2CC(OC3CC(O[C@@H]4C(=O)c5c(cc6cc(OC7CC(OC8CC(O)C(O)C(C)O8)C(O)C(C)O7)c(C)c(O)c6c5O)CC4[C@H](OC)[C@@H](O)C(C)=O)OC(C)C3O)OC(C)C2O)OC1C (some centres undefined)"
  Target of assay: "NCI-H23 lung"
  Assigned category: "active"
- Molecule: "CCOC(=O)C1=C(CC(O)c2ccc(OC)cc2OC)NC(=O)NC1c1ccccc1 (centres undefined)"
  Target of assay: "NCI-H23 lung"
  Assigned category: "inactive"
- Molecule: "CN(C)c1ccc(/C=C2\\C=C(c3nc4ccccc4s3)OC2=O)cc1"
  Target of assay: "NCI-H23 lung"
  Assigned category: "inactive"
- Molecule: "CCOC(=O)c1c(C)nc2ccccc2c1/C=C/c1ccc(F)cc1"
  Target of assay: "NCI-H23 lung"
  Assigned category: "inactive"
- Molecule: "C#CCOc1cccc(Nc2ncnc3c2ncn3C2CCN(C(=O)CCl)C2)c1 (centres undefined)"
  Target of assay: "NCI-H23 lung"
  Assigned category: "active"
- Molecule: "Cc1sc2nc(NCCN)[nH]c(=O)c2c1C"
  Target of assay: "NCI-H23 lung"
  Assigned category: "inactive"
- Molecule: "Ic1ccc(Nc2nc3nonc3nc2Nc2ccc(I)cc2)cc1"
  Target of assay: "NCI-H23 lung"
  Assigned category: "active"
- Molecule: "COc1cc(/C=C/c2cc(/C=C/c3ccc(O)c(OC)c3)n(C(=O)Nc3ccc(Cl)cc3)n2)ccc1O"
  Target of assay: "NCI-H23 lung"
  Assigned category: "active"
- Molecule: "COC(=O)/C=C1/SC(=Nc2ccc(F)cc2)N(CCc2c[nH]c3ccc(O)cc23)C1=O"
  Target of assay: "NCI-H23 lung"
  Assigned category: "inactive"
- Molecule: "N#CC1=C(N)Oc2c(sc3c(F)cccc23)C1c1ccc([N+](=O)[O-])cc1 (centres undefined)"
  Target of assay: "NCI-H23 lung"
  Assigned category: "active"
- Molecule: "C=C1C(=O)O[C@H]2[C@H]1CC/C(COC(=O)C(=O)c1c[nH]c3ccc(Cl)cc13)=C\\CC[C@@]1(C)O[C@@H]21"
  Target of assay: "NCI-H23 lung"
  Assigned category: "active"
- Molecule: "CNC(=O)Nc1ccc(-c2ccc3ncnc(Nc4cccc(Cl)c4)c3c2)cc1"
  Target of assay: "NCI-H23 lung"
  Assigned category: "inactive"
- Molecule: "CC(C)CCC[C@@H](C)[C@H]1CC[C@H]2[C@@H]3CC=C4c5sc(Nc6cc(C(F)(F)F)cc(C(F)(F)F)c6)nc5CC[C@]4(C)[C@H]3CC[C@]12C"
  Target of assay: "NCI-H23 lung"
  Assigned category: "inactive"
- Molecule: "COc1ccc(/C=N/Nc2c3ccccc3nc3ccccc23)cc1"
  Target of assay: "NCI-H23 lung"
  Assigned category: "inactive"
- Molecule: "O=C(/C=C/C12c3ccccc3C(c3ccccc31)C1C(=O)NC(=O)C12)c1ccc(I)cc1 (centres undefined)"
  Target of assay: "NCI-H23 lung"
  Assigned category: "inactive"
- Molecule: "CCOC(=O)CC[C@H](NC(=O)c1ccc(N(C)Cc2cnc3nc(N)nc(N)c3n2)c2ccccc12)C(=O)OCC"
  Target of assay: "NCI-H23 lung"
  Assigned category: "inactive"
- Molecule: "C=C1C(=O)O[C@@H]2C3C(=C(C)CC[C@@H]12)CC1O[C@]13C (some centres undefined)"
  Target of assay: "NCI-H23 lung"
  Assigned category: "inactive"
